Cited source for all entries: patent US20250163127A1

# testedSystem: CTLA-4 (Homo sapiens (Human)) (UniProt P16410)
# Sequence (P16410 36-223): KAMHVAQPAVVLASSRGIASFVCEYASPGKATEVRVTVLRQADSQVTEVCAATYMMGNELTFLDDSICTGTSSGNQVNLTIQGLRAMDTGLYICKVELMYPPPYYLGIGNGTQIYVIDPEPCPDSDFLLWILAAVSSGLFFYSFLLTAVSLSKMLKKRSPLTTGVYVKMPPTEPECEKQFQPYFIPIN
# assayName: flow cytometry, transfected cells
Property: MFI ratio to WT (ΔWT); scope: individual binders
Please respond with the number in fold and leave the unit unwritten.

Challenge: // returns reported MFI ratio to WT (ΔWT) for input ICOSL-Fc N52L/N57V (Fc fusion) DTQEKEVRAMVGSDVELSCACPEGSRFDLNDVYVYWQTSESKTVVTYHIPQLSSLEVVDSRYRNRALMSPAGMLRGDFSLRLFNVTPQDEQKFHCLVLSQSLGFQEVLSVEVTLHVAANFSVPVVSAPHSPSQDELTFTCTSINGYPRPNVYWINKTDNSLLDQALQNDTVFLNMRGLYDVVSVLRIARTPSVNIGCCIENVLLQQNLTVGSQTGNDIGERDKITENPVSTGEKNAAT
Response given: 0.46

Moving on to the next binder.
Challenge: // returns reported MFI ratio to WT (ΔWT) for input ICOSL-Fc N52A/N57F/Q100S (Fc fusion) DTQEKEVRAMVGSDVELSCACPEGSRFDLNDVYVYWQTSESKTVVTYHIPQASSLEFVDSRYRNRALMSPAGMLRGDFSLRLFNVTPQDEQKFHCLVLSSSLGFQEVLSVEVTLHVAANFSVPVVSAPHSPSQDELTFTCTSINGYPRPNVYWINKTDNSLLDQALQNDTVFLNMRGLYDVVSVLRIARTPSVNIGCCIENVLLQQNLTVGSQTGNDIGERDKITENPVSTGEKNAAT
Response given: 0.77
